Taken from ChEMBL document CHEMBL4428047.

Test: Clearance in rat liver microsomes assessed as drug turnover level at 1 uM incubated for 30 mins in presence of NADPH
Type: ADME, Microsome
Conditions: read-out: CLH
Quantity name: microsomal CLint at 1 µM

INSERT INTO results (compound, quantity_name, reported) VALUES
  ('CNC(=O)c1c(-c2ccccn2)c([C@H](C)Nc2ncnc(N)c2C#N)nc2cccc(F)c12', 'microsomal CLint at 1 µM', '< 14 µL/min/mg'),
  ('CCNC(=O)c1c(-c2ccccc2)c([C@H](C)Nc2ncnc(N)c2C#N)nc2ccc(F)cc12', 'microsomal CLint at 1 µM', '< 14 µL/min/mg'),
  ('CNC(=O)c1c(-c2ccccn2)c([C@H](C)Nc2ncnc(N)c2C#N)nc2ccc(F)cc12', 'microsomal CLint at 1 µM', '< 14 µL/min/mg'),
  ('C[C@H](Nc1ncnc(N)c1C#N)c1nc2ccc(F)cc2c(C(=O)N2CC(O)C2)c1-c1ccccc1', 'microsomal CLint at 1 µM', '49 µL/min/mg'),
  ('CNCCNC(=O)c1c(-c2ccccc2)c([C@H](C)Nc2ncnc(N)c2C#N)nc2ccc(F)cc12', 'microsomal CLint at 1 µM', '< 14 µL/min/mg'),
  ('C[C@H](Nc1ncnc2[nH]cnc12)c1cc2ccc(F)cc2nc1-c1ccccn1', 'microsomal CLint at 1 µM', '< 14 µL/min/mg'),
  ('CC(C)NC(=O)c1c(-c2ccccc2)c([C@H](C)Nc2ncnc(N)c2C#N)nc2ccc(F)cc12', 'microsomal CLint at 1 µM', '< 14 µL/min/mg'),
  ('CC(Nc1ncnc(N)c1C#N)c1nc2ccc(F)cc2c(C(=O)N2CC(O)C2)c1-c1ccccn1 (racemic)', 'microsomal CLint at 1 µM', '< 14 µL/min/mg'),
  ('C[C@H](Nc1ncnc(N)c1C#N)c1nc2ccc(F)cc2c(-c2ccccn2)c1-c1ccccn1', 'microsomal CLint at 1 µM', '16 µL/min/mg');
